Reference for the values: PubChem BioAssay AID1963862

- System: KRAS patient-derived spheroids with HUVEC/MSC, viability;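 also: spheroids exposed to agents for seven days before readout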
- test name: Anticancer human tumor 941728-121-R-J1-PDC patient-derived lung adenocarcinoma cell line growth inhibition [KRAS2]
- protocol conditions: second compound 3.16 µM; first compound 1 µM; stronger effect = lower value
test readout: viability, T/C

Below, each entry is followed by its recorded viability, T/C result.
CC1(C)CCC(CN2CCN(c3ccc(C(=O)NS(=O)(=O)c4ccc(NCC5CCOCC5)c([N+](=O)[O-])c4)c(Oc4cnc5[nH]ccc5c4)c3)CC2)=C(c2ccc(Cl)cc2)C1 + CC1OCC2(CCN(c3cnc(Sc4ccnc(N)c4Cl)c(N)n3)CC2)C1N ... 20.8%
O=C(c1cc(Cc2n[nH]c(=O)c3ccccc23)ccc1F)N1CCN(C(=O)C2CC2)CC1 + C=CC(=O)N1CCN(c2nc(OCC3CCCN3C)nc3c2CCN(c2cccc4cccc(C)c24)C3)CC1CC#N ... 0.34%
CCNC(=O)CC1N=C(c2ccc(Cl)cc2)c2cc(OC)ccc2-n2c(C)nnc21 (stereo unspecified) + C=CC(=O)N1CCN(c2nc(OCC3CCCN3C)nc3c2CCN(c2cccc4cccc(C)c24)C3)CC1CC#N ... 1.58%
CCNC(=O)CC1N=C(c2ccc(Cl)cc2)c2cc(OC)ccc2-n2c(C)nnc21 (stereo unspecified) + C=CC(=O)N1CCN(c2nc(=O)n(-c3c(C)ccnc3C(C)C)c3nc(-c4c(O)cccc4F)c(F)cc23)C(C)C1 ... 18.3%
COc1cc(Nc2ncc3c(n2)-c2ccc(Cl)cc2C(c2c(F)cccc2OC)=NC3)ccc1C(=O)O + CNCc1ccccc1-c1csc(C(C)Nc2nc(C)nc3cc(OC)c(OC)cc23)c1 ... 0.33%
CC1(C)CCC(CN2CCN(c3ccc(C(=O)NS(=O)(=O)c4ccc(NCC5CCOCC5)c([N+](=O)[O-])c4)c(Oc4cnc5[nH]ccc5c4)c3)CC2)=C(c2ccc(Cl)cc2)C1 + COc1cc2nc(C)nc(NC(C)c3cc(N)cc(C(F)(F)F)c3)c2cc1OC1CCOC1 ... 29.6%
CCNC(=O)CC1N=C(c2ccc(Cl)cc2)c2cc(OC)ccc2-n2c(C)nnc21 (stereo unspecified) + COc1cc2nc(C)nc(NC(C)c3cc(N)cc(C(F)(F)F)c3)c2cc1OC1CCOC1 ... 8.14%
CC(C)NCC(C(=O)N1CCN(c2ncnc3c2C(C)CC3O)CC1)c1ccc(Cl)cc1 (stereo unspecified) + CNCc1ccccc1-c1csc(C(C)Nc2nc(C)nc3cc(OC)c(OC)cc23)c1 ... 0.08%

# input Report viability, T/C for CC1OCC2(CCN(c3cnc(Sc4ccnc(N)c4Cl)c(N)n3)CC2)C1N (stereo unspecified) + COc1cc2nc(C)nc(NC(C)c3cc(N)cc(C(F)(F)F)c3)c2cc1OC1CCOC1 please.
# output 33.4%

# input State the recorded viability, T/C for this entry: CC(C)NCC(C(=O)N1CCN(c2ncnc3c2C(C)CC3O)CC1)c1ccc(Cl)cc1 (stereo unspecified) + C=CC(=O)N1CCN(c2nc(=O)n(-c3c(C)ccnc3C(C)C)c3nc(-c4c(O)cccc4F)c(F)cc23)C(C)C1
# output 16%

# input Reported viability, T/C for COC(=O)c1ccc2c(C(=Nc3ccc(N(C)C(=O)CN4CCN(C)CC4)cc3)c3ccccc3)c(O)[nH]c2c1 + C=CC(=O)N1CCN(c2nc(OCC3CCCN3C)nc3c2CCN(c2cccc4cccc(C)c24)C3)CC1CC#N : what is it?
# output 0.11%

# input If you can, please state the reported viability, T/C value of CCN1CCN(Cc2ccc(Nc3ncc(F)c(-c4cc(F)c5nc(C)n(C(C)C)c5c4)n3)nc2)CC1 + C=CC(=O)N1CCN(c2nc(OCC3CCCN3C)nc3c2CCN(c2cccc4cccc(C)c24)C3)CC1CC#N .
# output 0.18%

# input Param item = CCNC(=O)CC1N=C(c2ccc(Cl)cc2)c2cc(OC)ccc2-n2c(C)nnc21 (stereo unspecified) + CC1OCC2(CCN(c3cnc(Sc4ccnc(N)c4Cl)c(N)n3)CC2)C1N ; retrieve measured viability, T/C.
# output 10.3%

# input Entry Cn1nccc1Nc1nccc(-c2cc3c(s2)C(C)(C)N(CCN2CCOCC2)C3=O)n1 + CNCc1ccccc1-c1csc(C(C)Nc2nc(C)nc3cc(OC)c(OC)cc23)c1 : reported viability, T/C = ?
# output 0.99%

# input Need viability, T/C of COC(=O)c1ccc2c(C(=Nc3ccc(N(C)C(=O)CN4CCN(C)CC4)cc3)c3ccccc3)c(O)[nH]c2c1 + CNCc1ccccc1-c1csc(C(C)Nc2nc(C)nc3cc(OC)c(OC)cc23)c1 , thanks.
# output 0.73%

# input What does the data say about its viability, T/C? Entry: CC(C)NCC(C(=O)N1CCN(c2ncnc3c2C(C)CC3O)CC1)c1ccc(Cl)cc1 (stereo unspecified) + CC1OCC2(CCN(c3cnc(Sc4ccnc(N)c4Cl)c(N)n3)CC2)C1N
# output 14.3%

# input For the compound shown here, COc1cc(Nc2ncc3c(n2)-c2ccc(Cl)cc2C(c2c(F)cccc2OC)=NC3)ccc1C(=O)O + C=CC(=O)N1CCN(c2nc(OCC3CCCN3C)nc3c2CCN(c2cccc4cccc(C)c24)C3)CC1CC#N , give the reported viability, T/C.
# output 0.19%

# input Consider the compound shown here: CC1COCCN1c1cc(-c2ccnn2C)c2ccnc(-c3ccn[nH]3)c2n1 (stereo unspecified) + COc1cc2nc(C)nc(NC(C)c3cc(N)cc(C(F)(F)F)c3)c2cc1OC1CCOC1 What is its recorded viability, T/C?
# output 8.31%

# input Need viability, T/C of Cn1nccc1Nc1nccc(-c2cc3c(s2)C(C)(C)N(CCN2CCOCC2)C3=O)n1 + COc1cc2nc(C)nc(NC(C)c3cc(N)cc(C(F)(F)F)c3)c2cc1OC1CCOC1 , thanks.
# output 40.6%

# input What does the data say about its viability, T/C? Entry: CC(C)NCC(C(=O)N1CCN(c2ncnc3c2C(C)CC3O)CC1)c1ccc(Cl)cc1 (stereo unspecified) + C=CC(=O)N1CCN(c2nc(OCC3CCCN3C)nc3c2CCN(c2cccc4cccc(C)c24)C3)CC1CC#N
# output 0.15%

# input Form field: reported viability, T/C of Cn1nccc1Nc1nccc(-c2cc3c(s2)C(C)(C)N(CCN2CCOCC2)C3=O)n1 + CC1OCC2(CCN(c3cnc(Sc4ccnc(N)c4Cl)c(N)n3)CC2)C1N
# output 24.4%
